Taken from PubChem BioAssay (NCI).

tested on: KM12 colon; assay: NCI tumour cell line growth inhibition, 48 h; in the data active = GI50 below about 0.43 µM; inactive = the rest
The reply should be one of these categories: active, inactive

Solved entries:
[
  {
    "MOLECULE": "CC(C)(CCN=C(N)Nc1ccccn1)c1ccc(C(F)(F)F)cc1",
    "ASSIGNED CLASS": "inactive"
  },
  {
    "MOLECULE": "Clc1cc2c(nn1)Nc1ccccc1S2",
    "ASSIGNED CLASS": "inactive"
  },
  {
    "MOLECULE": "O=C1C(Nc2ccc(Br)cc2)=C(I)C(=O)c2ncccc21",
    "ASSIGNED CLASS": "inactive"
  },
  {
    "MOLECULE": "O=C(c1ccco1)c1c(C(F)(F)F)nc2ccc(C(F)(F)F)cc2[n+]1[O-]",
    "ASSIGNED CLASS": "inactive"
  },
  {
    "MOLECULE": "CO[C@]12C=C/C(=C(/C(=O)OCc3cccnc3)C(=O)CCCCCCCC[C@@]3(OC)C=C/C(=C(/C(=O)OCc4cccnc4)C(=O)CCCCCCCC1)O3)O2",
    "ASSIGNED CLASS": "inactive"
  }
]

Request: Write down the call the test reported for this molecule. Item: `Cc1ccc(/C=C/C(=N/N=C(N)N)c2ccccc2)cc1`
Response: inactive

Request: Write down the call the test reported for this molecule. Item: `NCCCn1c2c(c3ccc([N+](=O)[O-])cc3c1=O)C(=O)c1cc(-c3ccccc3)ccc1-2`
Response: active

Request: Write down the call the test reported for this molecule. Item: `C1COCCOCCOCCOCCOCCO1.[Cl][Sn]([Cl])([c]1ccccc1)[c]1ccccc1`
Response: inactive

Request: Write down the call the test reported for this molecule. Item: `O=C1C(=O)c2ccccc2C(O)=C1CCCc1ccc(C2CCCC2)cc1`
Response: inactive

Request: Write down the call the test reported for this molecule. Item: CC[C@@H](C(=O)[C@H](C)[C@H](O)[C@@H](C)[C@H]1O[C@H]([C@@H](CC)C(=O)O)CC[C@H]1C)C1O[C@]2(C=C[C@@H](O)[C@]3(CC[C@@](C)([C@H]4CC[C@](O)(CC)[C@H](C)O4)O3)O2)[C@H](C)C[C@@H]1C (stereo not given in full)
Response: inactive

====

system: NCI-H23 lung; test: NCI tumour cell line growth inhibition, 48 h; in the data active means GI50 below about 0.43 µM; inactive means the rest
The reply should be one of these categories: active, inactive

[
  {
    "MOLECULE": "CCC(C)[C@H](NC(=O)NC(=O)NC(=O)CI)C(=O)OC (some centres undefined)",
    "ASSIGNED CLASS": "inactive"
  },
  {
    "MOLECULE": "COC(=O)C[CH2][Ge]([CH3])([CH3])[S]c1ccccc1",
    "ASSIGNED CLASS": "inactive"
  },
  {
    "MOLECULE": "CN(C)CCC=C1c2ccccc2C(C)(C)c2ccccc21",
    "ASSIGNED CLASS": "inactive"
  },
  {
    "MOLECULE": "Clc1nc(Cl)c2c3c(sc2n1)CCCC3",
    "ASSIGNED CLASS": "inactive"
  },
  {
    "MOLECULE": "NC1CCC(Nc2nc(NCc3cc(Cl)ccc3O)c3ncn(C4CCCC4)c3n2)CC1 (centres undefined)",
    "ASSIGNED CLASS": "active"
  },
  {
    "MOLECULE": "O=[N+]([O-])c1ccc(Sc2nc(Cl)nc(NC3CCCC3)n2)cc1",
    "ASSIGNED CLASS": "inactive"
  },
  {
    "MOLECULE": "CCN(Cc1ccccc1Cl)c1ccc(CO)c(Cl)c1",
    "ASSIGNED CLASS": "inactive"
  },
  {
    "MOLECULE": "Cc1[nH]c(C(=O)Nc2ccccc2OC2CCNCC2)c(Cl)c1Cl",
    "ASSIGNED CLASS": "inactive"
  }
]

Request: Write down the call the test reported for this molecule. Item: CC[C@@H](C(=O)[C@H](C)[C@H](O)[C@@H](C)[C@H]1O[C@H]([C@@H](CC)C(=O)O)CC[C@H]1C)C1O[C@]2(C=C[C@@H](O)[C@]3(CC[C@@](C)([C@H]4CC[C@](O)(CC)[C@H](C)O4)O3)O2)[C@H](C)C[C@@H]1C (some centres undefined)
Response: active
